# study system: MT2 protein (from Sigma) (UniProt P02795)
# test description: SPR (BIAcoreX), MT2 immobilised on CM5 chip, peptide injected
Reported Kd values for a set of binders

binder	result unit	Kd
SAGSCKCKESKSTS [MTBcc peptide]	nM	160
KKSSCSCSPVGSAK [MTAn peptide]	nM	367
AQGSICKGASDKSS [MTAcc peptide]	nM	89.5
